Origin of the recorded values: patent US12692254B2

This listing pairs molecules with measured pIC50.
- target: human PAD4 (hPAD4) (Homo sapiens, UniProt Q9UM07)
- Sequence (Q9UM07 whole entry): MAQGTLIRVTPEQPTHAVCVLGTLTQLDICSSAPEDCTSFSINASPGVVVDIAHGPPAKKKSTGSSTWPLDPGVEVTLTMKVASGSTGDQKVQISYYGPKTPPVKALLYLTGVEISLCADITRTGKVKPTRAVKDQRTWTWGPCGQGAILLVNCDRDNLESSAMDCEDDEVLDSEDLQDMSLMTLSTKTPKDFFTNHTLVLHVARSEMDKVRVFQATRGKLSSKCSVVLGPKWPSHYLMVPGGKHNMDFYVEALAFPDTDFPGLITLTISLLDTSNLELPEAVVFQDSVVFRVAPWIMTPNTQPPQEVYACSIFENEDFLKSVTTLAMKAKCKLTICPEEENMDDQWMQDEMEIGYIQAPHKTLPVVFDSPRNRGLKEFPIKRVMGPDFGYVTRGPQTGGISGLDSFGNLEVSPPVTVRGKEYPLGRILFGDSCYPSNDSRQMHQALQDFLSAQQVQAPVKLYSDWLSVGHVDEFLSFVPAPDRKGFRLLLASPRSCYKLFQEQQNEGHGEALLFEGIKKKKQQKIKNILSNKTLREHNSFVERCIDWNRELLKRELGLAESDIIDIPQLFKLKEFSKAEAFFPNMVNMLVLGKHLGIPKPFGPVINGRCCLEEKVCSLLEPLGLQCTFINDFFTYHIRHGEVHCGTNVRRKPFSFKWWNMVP
- method.notes: RFMS human PAD4 functional assay (rapid-fire mass spectrum)
- measurement.conditions: 5 nM hPAD4 enzyme, 250 μM BAEE, 50 μM Calcium; 30 min preincubation, 90 min reaction at 37° C.
pIC50: −log10 of the molar value.

{"molecule": "COc1cc(C(=O)N2C[C@H]3CC[C@@H]2[C@@H]3N)cc2nc(-c3cc4ccccc4n3C)n(CC3CNC3)c12", "pIC50": 6.27}
{"molecule": "COc1cc(C(=O)N2CC3CCC2[C@@H]3N)cc2nc(-c3cc4cccnc4n3CC3CC3)n(CC3CN(c4cc(Cl)cnc4C#N)C3)c12 (stereo partly drawn)", "pIC50": 7.03}
{"molecule": "COc1cc(C(=O)N2CCC[C@@H](N)C2)cc2nc(-c3cc4cccnc4n3CC3CC3)n(C3CNC3)c12", "pIC50": 5.72}
{"molecule": "COc1cc(C(=O)N2CC3CCC2[C@@H]3N)cc2nc(-c3cc4cccnc4n3CC3CC3)n(Cc3cc(C)nn3C)c12 (stereo partly drawn)", "pIC50": 7.07}
{"molecule": "COc1cc(C(=O)N2C[C@H](N)CC[C@@H]2C)cc2nc(-c3cc4ccccc4n3CC3CC3)n(Cc3cnn(C)c3)c12", "pIC50": 7.32}
{"molecule": "COc1cc(C(=O)N2C[C@H]3CC[C@@H]2[C@@H]3N)cc2nc(-c3cc4cc(Cl)ccc4n3C)n(CC3CN(c4ccnc(C)n4)C3)c12", "pIC50": 6.73}
